tgt: hMC-4R (Homo sapiens)
Construct: expressed in transfected cells; host or cells: HEK293 cells (membrane preparations)
Sequence (P32245 whole entry): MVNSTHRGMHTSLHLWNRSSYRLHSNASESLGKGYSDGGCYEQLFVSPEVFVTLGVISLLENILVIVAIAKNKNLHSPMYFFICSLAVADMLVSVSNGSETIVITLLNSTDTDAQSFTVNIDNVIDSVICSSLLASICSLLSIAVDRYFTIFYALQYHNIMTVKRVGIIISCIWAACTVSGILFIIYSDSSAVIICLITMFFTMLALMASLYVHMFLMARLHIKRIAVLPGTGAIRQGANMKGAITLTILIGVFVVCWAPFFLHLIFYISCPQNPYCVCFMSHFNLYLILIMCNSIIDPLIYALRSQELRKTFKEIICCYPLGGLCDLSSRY
procedure-summary: Membrane binding assay: competition with fluorescence labeled NDP-alpha-MSH, fluorescence polarization
test-conditions: HEK293 cell membrane preparations expressing human melanocortin receptors; 5 h at room temperature; read-out: hMC-4R binding assay IC50
I'd be grateful if you could share measured IC50 for these entries.

CC(C)CCN(CCC(C)C)C(=O)c1ccc2nc(-c3ccoc3)c(C#CCN3CCCC3)n2c1 [Example 7] has a reported IC50 of 100 to 1000 nM

Cc1cc(-c2nc3ccc(C(=O)N(CCC(C)C)CCC(C)C)cn3c2C#CCN2CCCC2)n(C)n1 [Example 31] has a reported IC50 of 100 to 1000 nM

CC(C)CCN(CCC(C)C)C(=O)c1ccc2nc(-c3ccc(=O)n(C)c3)c(C#CCN3CCCC3)n2c1 [Example 33] has a reported IC50 of < 100 nM

COc1cccc(N(C)c2nc3ccc(C(=O)N(CCC(C)C)CCC(C)C)cn3c2C#CCN2CCCC2)c1 [Example 14] has a reported IC50 of 100 to 1000 nM

CC(C)CCN(CCC(C)C)C(=O)c1ccc2nc(Nc3ccccn3)c(C#CCN3CCCC3)n2c1 [Example 11] has a reported IC50 of < 100 nM

CC(C)CCN(CCC(C)C)C(=O)c1ccc2nc(-c3cnc4c(c3)OCCN4C)c(C#CCN3CCCC3)n2c1 [Example 29] has a reported IC50 of < 100 nM

CC(C)CCN(CCC(C)C)C(=O)c1ccc2nc(-c3cnco3)c(C#CCN3CCCC3)n2c1 [Example 5] has a reported IC50 of < 100 nM

CC(C)CCN(CCC(C)C)C(=O)c1ccc2nc(-c3ccccc3)c(C#CCN3CCCC3)n2c1 [Example 3] has a reported IC50 of > 1000 nM

CC(C)CCN(CCC(C)C)C(=O)c1ccc2nc(-c3ccc(C#N)c(F)c3)c(C#CCN3CCCC3)n2c1 [Example 26] has a reported IC50 of 100 to 1000 nM

CC(C)CCN(CCC(C)C)C(=O)c1ccc2nc(-c3cn[nH]c3)c(C#CCN3CCCC3)n2c1 [Example 17] has a reported IC50 of < 100 nM

CC(C)CCN(CCC(C)C)C(=O)c1ccc2nc(C#Cc3ccccc3)c(C#CCN3CCCC3)n2c1 [Example 4] has a reported IC50 of 100 to 1000 nM

CC(C)CCN(CCC(C)C)C(=O)c1ccc2nc(Nc3ncccn3)c(C#CCN3CCCC3)n2c1 [Example 9] has a reported IC50 of 100 to 1000 nM

CC(C)CCN(CCC(C)C)C(=O)c1ccc2ncc(C#CCN3CCCC3)n2c1 [Example 2] has a reported IC50 of 100 to 1000 nM

CC(C)CCN(CCC(C)C)C(=O)c1ccc2nc(-c3cc(F)cc(F)c3)c(C#CCN3CCCC3)n2c1 [Example 27] has a reported IC50 of > 1000 nM

COc1cc(-c2nc3ccc(C(=O)N(CCC(C)C)CCC(C)C)cn3c2C#CCN2CCCC2)ccc1F [Example 24] has a reported IC50 of 100 to 1000 nM

CC(C)CCN(CCC(C)C)C(=O)c1ccc2nc(-c3c[nH]nc3C(F)(F)F)c(C#CCN3CCCC3)n2c1 [Example 36] has a reported IC50 of 100 to 1000 nM
